- System: gene editing with Cas9
- protocol-notes: Screen of 322 new SSAP proteins, gene editing activity with Cas9 (Table 5)
- Assay type: cell-based
- condition-description: normalized
Readings of Cas9 with SSAP activity (normalized) for the listed molecules
Form rule: numeric answer, no unit written next to it.

Field: example entries. Status: answers known.
* SSAP_167: SEQ ID NO: 336; Ruminococcus sp. (protein, listed as Ruminococcus sp.) GTSIQKNVENNALQKEKMPTMQAYIKKMEGEIKKALPSVMTPERFTRITLSALSTNPKLAATTPGSFLGAMMTAAQLGLEPNTPLGQAYLIPYSNKGKLECQFQIGYKGLIDLAYRSGSISVIQAHTVYENDDFEYELGLDPKLKHIPSKSADKGNPAWFYAVFKTKDGGYGFEVMSIEDIRSHAAKYSQSYNSAYSPWKTNFEEMAKKTVLKKALKYAPLKSDFVRQISTDETIKTKLSDDMFSVPAETIEVEGIEVDTETGEITEVDHA | −0.698
* SSAP_221: SEQ ID NO: 390; Streptomyces sp. 351MFTsu5.1 (protein, listed as Streptomyces sp.) SQISNAIEKRDQGPGAVIEQYKQELALVAASHVKVDTFARLAVGALRQNPKLAAAAQSNPGSLMSALMTAARLGLEPGTEQFYLRPIKRKGVAEVQGIVGYQGIVELIYNAGAASSVVVEVVRANDQFNYVPGLHERPVHNVDWFGDRGDLVGVYAYAVMAGGATSKVVVLSRTHINRAKAKSDGADSDYSPWRTDEEAMWLKTAARRLGKWVPTSAERLTMPAERTDTVLPVGSAAPALDAADPDEDEGPVDGELEPAGGWPETAQPPQ | −0.728
* SSAP_254: SEQ ID NO: 423; Pediococcus pentosaceus (protein, listed as Pediococcus pentosaceus) MNDISKVPMKVLVQQDKVQRMLENTLKGKTRQFTTSLINVVNSNQSLADVDQMSVIKSAMVAASLDLPIDQNLGFMWLVPYKGMATPQIGYKGYIQLALRTGQYKKLNTIVVHEGEMKYWNPLTEDFEYDPKGKESDEVIGYLGYLRMINGFEKTVYWTKQNIEDHRMKFSKMSGKAKPSGVWASNYDAMALKTVMRNLLSKWGIMSIEMQQAVVQDEKAPETDVRDVTPTETNSIDSLLAPEPKGEPINDSNEATVPTNAE | −0.694
* SSAP_245: SEQ ID NO: 414; Paenibacillus macquariensis subsp. defensor (protein, listed as Paenibacillus macquariensis) SDKLLVIHKNLENLLDSKREAMPSNFNKTRFLQNCMTVLQDTRDIDKCDATSVARTMLKGAFLGLDFFNKECYAITYAGAVQFQTDYKGEKKLAKKYSVRPVRDIYAKLVKEGDDFKEEVKDGQQTIQFAPKPFNDGEVLGAFAVALFEDGGLVYEVMSKVDIETTRKNYSKQANGQAWTKSPGEMYKKTVLRRLCKNIELDFDTIEQAQAFEDSGDMDLNKEVKPPQVSPLNATVIDAEYTEIREGDPNATNQE | 0.572
* SSAP_145: SEQ ID NO: 314; Roseburia sp. CAG: 182 (protein, listed as Roseburia sp.) DVKEELAKMAEEKPTKKLTKSMSIQDMIKVIEPEIKKALPSVLTPERFTRMALSAINNTPKLAECSQISFLAALMNAAQLGLEPNTPLGQAYLIPFQNKGKLECQFQIGYKGIIELVYRNPLIQTIQAQVVYENDEFEYELGLNSRLFHRPALYDRGETVLFYALFKMSNGGYGFEVLSKQDMDAYAKRYSKGISSEYSPWKSNYEEMAKKTMIKKVLKYAPIRTDFQKAVSMDESIKKELSVDMSEVSNENIIDMEEITQEEE | −0.214

Quick note, Cas9 with SSAP activity (normalized) for SSAP_158: SEQ ID NO: 327; Nakamurella lactea (protein, Nakamurella lacteal, Nakamurella lactea) ASNLAARAAEQVEQQTAPNRPPTIKEQIGRMESQFALAMPRGSEAAQLVRDAITAINTNPQLAECTPASVLGALMTCAQLGLRPGVLGHAWVLPFRSKGVMQAQLVIGYQGLVELAHRTGQVASLIAREVHERDHFDVDYGLADSLIHKPLLNGDRGPVTGYYAIVKFKGGGHSFIYASKADVEAHRDKFSKMKSFGPWVDNFDSMALKTVVRMLAKWMPKSTEFANAISADEGVRVDYSPTADVAQATEYVQPQLEEAPVEGVVVSEGGES landed at −0.520

Quick note, Cas9 with SSAP activity (normalized) for SSAP_182: SEQ ID NO: 351; Lacrimispora sphenoides (protein, Lacrimispora sphenoides) ADVKQELEKRAAGSGGQSVKLTKNMTIVDMVKALEPEIKRALPCILTPERFSRMALSAINNTPKLGECTPMSFIAALMNAAQLGLEPNTPLGQAYLIPYKNKGVLECQFQLGYRGLIDLAYRNERMQSIEAQVVYDNDEFSYELGLHPSLIHRPTFDEPGEIQAFYAIFRLDNGGFRFEVMSKNYVDSLCHALFKSIYFRFQSLEK landed at −1.689

Quick note, Cas9 with SSAP activity (normalized) for SSAP_115: SEQ ID NO: 284; Lacrimispora amygdalina (protein, listed as Lacrimispora amygdalina) AVDVKNELERKASGQNSQVKLTKSMTIADMVKALEPEIKRALPAVLTPERFTRMALSAINNTPELAGCTPMSFIAAMMNAAQLGLEPNTPLGQAYLIPYKNKGVLECQFQIGYKGMIDLAYRTGQIQVIQGQAVREFDYFEYQYGLDPKLVHRPGEEERGEITFIYGLFRLSNGGYGFEVSNKADMDAFAAKYSKSFGSKYSPWTENYEDMAKKTVIKRALKYAPVSVDFQKAMSMDETIKTEISVDMSEIRNECPEISENGEAA landed at −0.733

Every entry's value here was drawn from patent US20250034594A1.
